Ref: patent US8119640B2

For each entry below, report its % Inhibition Su(fu)-/- MEFs value.
system: Hh pathway; test: Su(fu)-/- fibroblasts assay for Hh pathway activation; assay type: cell-based; details: Gli-dependent firefly luciferase; 15 μM HPI-1, 20 μM HPI-2, 30 μM HPI-3, 30 μM HPI-4; 1440 min
Give bare numbers, in %.

Take a look at these entries with their results.
input: Name the recorded % Inhibition Su(fu)-/- MEFs of the item CCOC(=O)c1cn(-c2ccccc2)nc1-c1ccc(OC)c(OC)c1 in your answer.
output: −26.9

input: In one line, give reported % Inhibition Su(fu)-/- MEFs of the entry O=C(Nc1nnc(S(=O)(=O)N2CCCCC2)s1)c1cccc(Br)c1 .
output: 89.1

input: Quote % Inhibition Su(fu)-/- MEFs reported for COc1ccc(OC)c2c1cc1n2CC(C)(C(=O)NC2CCCCCCC2)N(CCN(C)C)C1=O (stereo not drawn) please.
output: 89.1

Take each entry in turn and give its % Inhibition Su(fu)-/- MEFs.
1. CCN1CCCC1CNC(=O)C1CCN(c2nc3c(C)cc(C)cc3s2)CC1 (stereo not drawn)
2. OCCNc1nc(N2CCN(c3ccccc3)CC2)nc2ccccc12
3. N#Cc1cc2c(nc1SCC(=O)Nc1nc3ccccc3s1)CCC2
4. O=C(Nc1cccc2ccccc12)OC[C@@H]1CCCN2CCCC[C@H]12
5. O=S(=O)(Nc1cc(Cl)c(Cl)cc1Cl)c1ccc(F)cc1
6. CCOC(=O)c1cc2c(=O)n3ccccc3nc2n(C(C)C)c1=NC(=O)c1cc(OC)cc(OC)c1
7. Cc1cc(/C=c2\sc3nc4ccccc4n3c2=O)c(C)n1C(C)C
8. CCOc1ccc2ncc(C(=O)c3ccc(C)cc3)c(N3CCCC3)c2c1

output:
1. 32.1
2. 70.7
3. 95.2
4. −7.55
5. 81.8
6. 90
7. 92.8
8. 84.3
